Entry source: ChEMBL document CHEMBL5724914

protocol description: The drug is tested on WLS-090 corresponding to human gut metagenome with ENA study accession number: PRJEB37062 and ENA sample accession number: ERS12561753 for biotransformation under anaerobic condition. The drug concentrations were measured over 9 timepoints collected between 0 and 24 hours of incubation by liquid-chromatography-coupled mass spectrometry (LC–MS); note: call rule not given here
recorded conditions: 2 µM

[
  {
    "molecule": "CC(C)c1c(C(=O)Nc2ccccc2)c(-c2ccccc2)c(-c2ccc(F)cc2)n1CC[C@@H](O)C[C@@H](O)CC(=O)O",
    "Bacterial Biotransformation": "Compound metabolized"
  },
  {
    "molecule": "CC(C)NCC(O)c1ccc(NS(C)(=O)=O)cc1 (stereo not given)",
    "Bacterial Biotransformation": "Compound metabolized"
  },
  {
    "molecule": "COc1c2occc2cc2ccc(=O)oc12",
    "Bacterial Biotransformation": "Compound metabolized"
  },
  {
    "molecule": "CCCCC(=O)N(Cc1ccc(-c2ccccc2-c2nnn[nH]2)cc1)[C@H](C(=O)O)C(C)C",
    "Bacterial Biotransformation": "Compound metabolized"
  }
]

---

protocol description: The drug is tested on Z-014 corresponding to rat gut metagenome with ENA study accession number: PRJEB37062 and ENA sample accession number: ERS12561814 for biotransformation under anaerobic condition. The drug concentrations were measured over 9 timepoints collected between 0 and 24 hours of incubation by liquid-chromatography-coupled mass spectrometry (LC–MS)
recorded conditions: 2 µM

[
  {
    "molecule": "Cc1cc2c(cc1S(N)(=O)=O)S(=O)(=O)CCC2",
    "Bacterial Biotransformation": "Compound NOT metabolized"
  },
  {
    "molecule": "CCN(CC)C(=O)/C(C#N)=C/c1cc(O)c(O)c([N+](=O)[O-])c1 [ENTACAPONE]",
    "Bacterial Biotransformation": "Compound metabolized"
  },
  {
    "molecule": "Cc1ccnc2c1NC(=O)c1cccnc1N2C1CC1 [NEVIRAPINE]",
    "Bacterial Biotransformation": "Compound NOT metabolized"
  },
  {
    "molecule": "O=C(O)COCCN1CCN(C(c2ccccc2)c2ccc(Cl)cc2)CC1 (centres undefined) [CETIRIZINE]",
    "Bacterial Biotransformation": "Compound NOT metabolized"
  },
  {
    "molecule": "O=C(CCCN1CCC(O)(c2ccc(Cl)cc2)CC1)c1ccc(F)cc1 [HALOPERIDOL]",
    "Bacterial Biotransformation": "Compound NOT metabolized"
  },
  {
    "molecule": "COC1=CC(=O)C[C@@H](C)[C@]12Oc1c(Cl)c(OC)cc(OC)c1C2=O [GRISEOFULVIN]",
    "Bacterial Biotransformation": "Compound metabolized"
  },
  {
    "molecule": "CC[C@H](C)C(=O)O[C@H]1C[C@@H](C)C=C2C=C[C@H](C)[C@H](CC[C@@H]3C[C@@H](O)CC(=O)O3)[C@H]21 [LOVASTATIN]",
    "Bacterial Biotransformation": "Compound NOT metabolized"
  },
  {
    "molecule": "CCCC(=O)Nc1ccc(OCC(O)CNC(C)C)c(C(C)=O)c1 (centres undefined) [ACEBUTOLOL]",
    "Bacterial Biotransformation": "Compound NOT metabolized"
  },
  {
    "molecule": "C=CCc1ccccc1OCC(O)CNC(C)C (centres undefined) [ALPRENOLOL]",
    "Bacterial Biotransformation": "Compound NOT metabolized"
  }
]
